Please provide measured IC50 for the entries that follow.
# Target entity: T1, activated human complement C1s (human, UniProt P09871 16-688)
# T1 construct: also called aC1s; active C1s
# T1 sequence: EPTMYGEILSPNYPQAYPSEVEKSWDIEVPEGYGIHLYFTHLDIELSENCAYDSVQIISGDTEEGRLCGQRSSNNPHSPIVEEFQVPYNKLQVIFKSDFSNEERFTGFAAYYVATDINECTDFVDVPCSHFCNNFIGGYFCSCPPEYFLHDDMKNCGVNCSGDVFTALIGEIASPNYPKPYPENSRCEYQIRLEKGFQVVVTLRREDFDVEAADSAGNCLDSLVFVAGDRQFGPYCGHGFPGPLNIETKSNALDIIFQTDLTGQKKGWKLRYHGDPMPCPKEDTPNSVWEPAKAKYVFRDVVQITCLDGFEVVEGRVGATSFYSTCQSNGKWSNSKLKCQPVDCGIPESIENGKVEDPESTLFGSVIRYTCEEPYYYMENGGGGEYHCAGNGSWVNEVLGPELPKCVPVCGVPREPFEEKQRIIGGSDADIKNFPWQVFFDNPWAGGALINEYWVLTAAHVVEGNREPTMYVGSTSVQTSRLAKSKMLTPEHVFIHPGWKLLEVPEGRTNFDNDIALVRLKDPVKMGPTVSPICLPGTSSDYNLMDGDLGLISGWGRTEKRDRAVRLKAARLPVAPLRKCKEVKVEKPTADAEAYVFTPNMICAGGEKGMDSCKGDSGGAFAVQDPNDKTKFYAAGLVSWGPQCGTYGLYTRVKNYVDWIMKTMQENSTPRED
# Protocol details: competition binding to active C1s; competitor 50 pM biotinylated TNT005 (Biot-005)
Give the quantity in nM, number only.

Task item: I would be grateful if you could share the reported IC50 for humanized TNT005 variant VH variant 4+Vk variant 5 (antibody, V domains shown, also called VH variant 4 + VL variant 5) VH: QVQLVQSGAEVKKPGASVKVSCTASGFNIKDDYIHWVRQAPGQGLEWIGRIDPADGHTKYAPKFQVKVTITADTSTSTAYMELSSLRSEDTAVYYCARYGYGREVFDYWGQGTTVTVSS VL: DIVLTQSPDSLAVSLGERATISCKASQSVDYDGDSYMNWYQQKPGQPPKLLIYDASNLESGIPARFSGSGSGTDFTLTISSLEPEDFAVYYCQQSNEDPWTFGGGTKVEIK .
Reply: 0.156

Task item: I would be grateful if you could share the reported IC50 for humanized TNT005 variant VH variant 4+Vk variant 2 (antibody, V domains shown, also called VH variant 4 + VL variant 2) VH: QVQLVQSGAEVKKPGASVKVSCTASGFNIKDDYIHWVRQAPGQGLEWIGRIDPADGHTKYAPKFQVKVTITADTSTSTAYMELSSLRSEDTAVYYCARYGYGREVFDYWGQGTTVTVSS VL: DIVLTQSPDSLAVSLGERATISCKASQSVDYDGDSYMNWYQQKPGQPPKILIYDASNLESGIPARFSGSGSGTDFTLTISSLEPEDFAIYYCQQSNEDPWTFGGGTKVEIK .
Reply: 0.158

Task item: I would be grateful if you could share the reported IC50 for humanized TNT005 variant VH variant 1+Vk variant 5 (antibody, V domains shown, also called VH variant 1 + VL variant 5) VH: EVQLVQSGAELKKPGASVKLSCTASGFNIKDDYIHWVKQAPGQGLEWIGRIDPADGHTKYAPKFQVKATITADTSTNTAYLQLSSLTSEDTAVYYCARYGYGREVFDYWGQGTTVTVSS VL: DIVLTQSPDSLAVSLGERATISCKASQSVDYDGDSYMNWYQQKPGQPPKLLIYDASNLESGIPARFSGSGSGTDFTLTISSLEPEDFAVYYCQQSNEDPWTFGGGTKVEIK .
Reply: 0.129

Data provenance is patent US20200405852A1.
